protocol.notes: Microsomal stability assay, rat
Assay type: in vitro ADME
cond: metabolic stability, rat liver microsomes 0.5 mg/mL, substrate 3 uM
parameter.measured: MS Rat THalf (min)

Answered cases to consult:
| compound | units.label | MS Rat THalf |
| --- | --- | --- |
| Cc1nc(Cn2ncc3ccc(-c4ccc(OC(F)(F)F)cc4)cc3c2=O)no1 | min | 104 |
| O=c1c2cc(-c3ccc(OC(F)(F)F)cc3)ccc2nnn1Cc1noc(C2CC2)n1 | min | 375 |
| Cc1cc(Cn2nnc3ccc(-c4ccc(OC(F)(F)F)cc4)cc3c2=O)on1 | min | 298 |
| O=C1c2cc(-c3ccc(C(F)(F)F)cc3)ccc2SCN1Cc1ccccn1 | min | 45 |
| Cn1cnc(C(=O)N2CCc3ccc(-c4ccc(C(F)(F)F)cc4)cc3C2)c1 | min | 281 |
| O=c1c2cc(-c3ccc(OC(F)(F)F)cc3)ccc2nnn1CCn1ccc(C(F)(F)F)n1 | min | 118 |
| O=C1c2cc(-c3ccc(C(F)(F)F)cc3)ccc2CCN1Cc1ncccn1 | min | 355 |
| O=c1c2cc(-c3ccc(OC(F)(F)F)cc3)ccc2cnn1Cc1cccnc1C1CC1 | min | 54 |

1 = O=C1c2cc(-c3ccc(OC(F)(F)F)cc3)ccc2OCN1Cc1ccccn1
2 = Cc1nccn1CC1(Cn2nnc3ccc(-c4ccc(OC(F)(F)F)cc4)cc3c2=O)CC1
Lookup: // which entry has the larger MS Rat THalf value, 1 or 2 ? Please identify the chosen entry by its label.
Found: 1
(1: 227 min, 2: 2 min)

###

Parameter inhibition at 1 µM: see the listing below.
target.under.test: wild-type human cardiac sodium channel, hNav1.5 (peak INa) (Homo sapiens)
Sequence (Q14524 whole entry): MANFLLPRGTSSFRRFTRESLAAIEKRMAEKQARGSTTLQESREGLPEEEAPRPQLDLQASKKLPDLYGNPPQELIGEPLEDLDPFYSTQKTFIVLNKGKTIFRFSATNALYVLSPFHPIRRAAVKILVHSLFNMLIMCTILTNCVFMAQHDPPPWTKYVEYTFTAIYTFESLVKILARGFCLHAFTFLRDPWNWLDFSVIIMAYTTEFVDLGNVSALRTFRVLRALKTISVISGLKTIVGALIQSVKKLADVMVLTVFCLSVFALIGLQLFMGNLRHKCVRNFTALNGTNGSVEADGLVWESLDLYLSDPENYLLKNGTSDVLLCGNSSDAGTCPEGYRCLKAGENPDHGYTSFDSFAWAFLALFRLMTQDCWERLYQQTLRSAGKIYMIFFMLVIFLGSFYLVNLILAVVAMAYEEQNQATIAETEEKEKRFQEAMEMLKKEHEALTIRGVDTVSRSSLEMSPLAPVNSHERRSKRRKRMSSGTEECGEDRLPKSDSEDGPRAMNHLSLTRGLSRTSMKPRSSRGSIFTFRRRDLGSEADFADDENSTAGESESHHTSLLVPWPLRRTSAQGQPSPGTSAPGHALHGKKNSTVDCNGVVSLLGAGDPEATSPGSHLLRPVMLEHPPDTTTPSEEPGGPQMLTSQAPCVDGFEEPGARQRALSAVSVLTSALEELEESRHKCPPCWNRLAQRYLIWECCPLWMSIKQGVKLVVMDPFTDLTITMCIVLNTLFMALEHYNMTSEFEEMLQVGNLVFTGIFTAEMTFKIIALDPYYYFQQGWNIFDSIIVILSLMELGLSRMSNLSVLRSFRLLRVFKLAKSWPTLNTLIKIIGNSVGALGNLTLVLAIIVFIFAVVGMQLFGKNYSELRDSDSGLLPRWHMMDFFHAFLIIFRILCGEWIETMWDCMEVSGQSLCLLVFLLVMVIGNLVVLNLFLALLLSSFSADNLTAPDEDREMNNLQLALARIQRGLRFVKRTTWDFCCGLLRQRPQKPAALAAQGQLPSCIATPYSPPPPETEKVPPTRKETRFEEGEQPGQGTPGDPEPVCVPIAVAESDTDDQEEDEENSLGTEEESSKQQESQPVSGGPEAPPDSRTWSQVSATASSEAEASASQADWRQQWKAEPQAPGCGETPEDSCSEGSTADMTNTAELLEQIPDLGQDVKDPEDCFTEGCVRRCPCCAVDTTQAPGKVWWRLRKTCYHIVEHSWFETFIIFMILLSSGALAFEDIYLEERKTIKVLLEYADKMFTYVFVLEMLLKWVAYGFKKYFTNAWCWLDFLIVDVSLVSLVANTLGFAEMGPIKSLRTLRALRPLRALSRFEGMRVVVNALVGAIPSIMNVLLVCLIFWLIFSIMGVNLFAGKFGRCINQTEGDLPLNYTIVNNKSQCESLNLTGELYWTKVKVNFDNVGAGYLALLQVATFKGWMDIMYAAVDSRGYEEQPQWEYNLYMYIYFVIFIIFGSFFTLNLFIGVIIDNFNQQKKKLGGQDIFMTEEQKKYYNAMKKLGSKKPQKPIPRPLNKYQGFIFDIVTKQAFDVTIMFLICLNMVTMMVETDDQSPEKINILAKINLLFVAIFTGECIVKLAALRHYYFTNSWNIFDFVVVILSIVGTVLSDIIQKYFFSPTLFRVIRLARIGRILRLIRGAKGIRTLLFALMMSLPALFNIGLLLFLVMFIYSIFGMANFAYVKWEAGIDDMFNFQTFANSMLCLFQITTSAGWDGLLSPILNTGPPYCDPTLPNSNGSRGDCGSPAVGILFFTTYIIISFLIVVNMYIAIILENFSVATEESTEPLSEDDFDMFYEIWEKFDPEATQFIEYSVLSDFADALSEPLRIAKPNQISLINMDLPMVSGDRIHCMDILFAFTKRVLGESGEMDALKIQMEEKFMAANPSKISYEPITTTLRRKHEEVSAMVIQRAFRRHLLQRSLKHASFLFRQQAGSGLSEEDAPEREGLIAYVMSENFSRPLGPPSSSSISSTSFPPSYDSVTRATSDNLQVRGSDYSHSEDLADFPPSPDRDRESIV
protocol.notes: Peak INa screening assay (tonic and use-dependent block)
Type: cell-based
cond: % inhibition at 1 μM, use-dependent block 3 Hz; read-out: NAv1.5*-PEAK-UDB-3 HZ-
Please reply with the bare figure in % and do not write the unit itself.

Answered cases to consult:
| molecule | units.label | inhibition at 1 µM |
| --- | --- | --- |
| O=c1c2cc(-c3ccc(OC(F)(F)F)cc3)ccc2nnn1Cc1nnc(C2CC2)o1 | % | 7 |
| Cc1noc(Cn2nnc3ccc(-c4ccc(OC(F)(F)F)cc4)cc3c2=O)n1 | % | 10 |

Lookup: I am curious: what inhibition at 1 µM value has been reported for COC(=O)C1(Cn2nnc3ccc(-c4ccc(OC(F)(F)F)cc4)cc3c2=O)CC1 ?
Found: 3

Lookup: I am curious: what inhibition at 1 µM value has been reported for O=c1c2cc(-c3ccc(OC(F)(F)F)cc3)ccc2nnn1CC1(CN2CCOCC2)CC1 ?
Found: 29

Lookup: I am curious: what inhibition at 1 µM value has been reported for O=C1c2cc(-c3ccc(OC(F)(F)F)cc3)ccc2OCN1Cc1ncccn1 ?
Found: 23

###

protocol.notes: Microsomal stability assay, dog
Format: in vitro ADME
cond: metabolic stability, dog liver microsomes 0.5 mg/mL, substrate 3 uM
Protocol: The micorsomal stability assay is generally performed as follows. Format: 15 compounds (and 1 control verapamil) in 3 different species in duplicate sets Substrate: 3 uM Protein concentration: 0.5 mg/mL (for dog, rat, and human liver microsomes) Cofactor: 1×NADPH-Regenerating system Time-points: 2, 12, 25, 45, and 65 minutes [table] Sample preparation: 25 uL at each timepoint is added to plate with 225 uL quenching solution (50% MeOH, 25% ACN, 25% H2O, and 50 nM test compound). […]
parameter.measured: MS Dog THalf (min)

Answered cases to consult:
| molecule | MS Dog THalf (min) |
| --- | --- |
| Cc1noc(Cn2ncc3ccc(-c4ccc(OC(F)(F)F)cc4)cc3c2=O)n1 | 68 |
| COc1cc(OC)nc(Cn2ncc3ccc(-c4ccc(OC(F)(F)F)cc4)cc3c2=O)n1 | 129 |
| N#Cc1cnc(OCCn2nnc3ccc(-c4ccc(OC(F)(F)F)cc4)cc3c2=O)nc1 | 93 |
| Cn1ccnc1C(=O)N1CCc2ccc(-c3ccc(C(F)(F)F)cc3)cc2C1 | 197 |

I = O=c1c2cc(-c3ccc(OC(F)(F)F)cc3)ccc2cnn1CCOc1ncc(Cl)cn1
II = O=C(N1CCCC1)N1CCc2ccc(-c3ccc(C(F)(F)F)cc3)cc2C1
III = O=C(c1ncc[nH]1)N1CCc2ccc(-c3ccc(C(F)(F)F)cc3)cc2C1
IV = O=c1c2cc(-c3ccc(OC(F)(F)F)cc3)ccc2nnn1CC1(CN2CCOCC2)CC1
Lookup: Please put the entries in order of rising MS Dog THalf. // rank by listing labels in the order requested
Found: IV, I, II, III
(IV: 2 min, I: 37 min, II: 93 min, III: 245 min)
